- Target Desc: Free fatty acid receptor 1 (Homo sapiens)
- Sequence (O14842 whole entry): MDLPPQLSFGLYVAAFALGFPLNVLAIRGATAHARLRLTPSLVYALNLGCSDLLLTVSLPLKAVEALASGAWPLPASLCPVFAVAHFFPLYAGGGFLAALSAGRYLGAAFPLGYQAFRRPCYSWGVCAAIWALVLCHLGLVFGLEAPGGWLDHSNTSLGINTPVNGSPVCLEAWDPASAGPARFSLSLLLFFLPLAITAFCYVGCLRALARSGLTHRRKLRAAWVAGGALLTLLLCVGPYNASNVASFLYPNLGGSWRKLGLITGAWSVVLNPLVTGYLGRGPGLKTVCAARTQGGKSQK
- Assay Summary: Agonist activity at GPR40 (unknown origin) expressed in CHO cells assessed as increase in cAMP level incubated for 30 mins by cAMP-Glo assay
- Format: functional, cell-based
compounds and their reported pEC50
Scale explanation: pEC50 corresponds to minus log10 of a concentration expressed in moles per litre.

[
  {
    "Compound Smiles": "Cc1cc(F)ccc1-c1cc2cc(CCC(=O)O)ccc2[nH]1",
    "Experimental Value": 6.17
  }
]

What measured pEC50 goes with Cc1ccc(C)c(-c2cc3cc(CCC(=O)O)ccc3[nH]2)c1 ?
5.12

====

compounds and their reported Tmax
- Assay Summary: Tmax in CD-1 mouse at 30 mg/kg, po measured up to 8 hrs by LC-MS/MS analysis
- Format: ADME, organism-based
- Condition Details: in vivo
Response body: numeric value in min, unit text excluded.

[
  {
    "Compound Smiles": "Cc1cc(F)ccc1-c1cc2cc(CCC(=O)O)ccc2[nH]1",
    "Experimental Value": 26.4
  }
]

Now for a further compound.
Fill in the blank: the reported Tmax of Cc1ccc(C)c(-c2cc3cc(CCC(=O)O)ccc3[nH]2)c1 is ____.
19.8

====

- Target Desc: Free fatty acid receptor 3 (Homo sapiens, UniProt O14843)
- Sequence (O14843 whole entry): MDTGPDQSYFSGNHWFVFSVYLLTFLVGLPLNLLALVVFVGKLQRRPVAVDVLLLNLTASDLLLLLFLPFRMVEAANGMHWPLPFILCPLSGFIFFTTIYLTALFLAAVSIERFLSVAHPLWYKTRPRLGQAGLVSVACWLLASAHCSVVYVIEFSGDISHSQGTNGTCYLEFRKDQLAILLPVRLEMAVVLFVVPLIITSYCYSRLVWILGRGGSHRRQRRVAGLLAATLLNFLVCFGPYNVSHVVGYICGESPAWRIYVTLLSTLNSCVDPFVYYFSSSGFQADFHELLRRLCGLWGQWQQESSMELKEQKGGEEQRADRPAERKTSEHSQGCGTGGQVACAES
- Assay Summary: Agonist activity at FFAR3 (unknown origin)
pEC50: −log10 of the molar value.
Endpoint: pEC50

[
  {
    "Compound Smiles": "Cc1ccc(C)c(-c2cc3cc(CCC(=O)O)ccc3[nH]2)c1",
    "Target Desc": "Free fatty acid receptor 3 (Homo sapiens, UniProt O14843)",
    "pEC50": "< 4.60"
  }
]

Continue with the next compound.
// lookup pEC50 for Cc1cc(F)ccc1-c1cc2cc(CCC(=O)O)ccc2[nH]1
< 4.60

====

- Assay Summary: Clast in CD-1 mouse at 90 mg/kg, po measured up to 8 hrs by LC-MS/MS analysis
- Format: ADME, organism-based
- Condition Details: in vivo, read-out: Clast
Endpoint: concentration at 8 h
Field note: include the unit after the figure.

[
  {
    "Compound Smiles": "Cc1ccc(C)c(-c2cc3cc(CCC(=O)O)ccc3[nH]2)c1",
    "concentration at 8 h": "2680 ng/mL"
  }
]

// next entry
So what's the measured concentration at 8 h for this one? Cc1cc(F)ccc1-c1cc2cc(CCC(=O)O)ccc2[nH]1
63 ng/mL

====

- Target Desc: Peroxisome proliferator-activated receptor gamma (Homo sapiens)
- Assay Summary: Agonist activity at human PPARgamma expressed in CHO cells assessed as increase in receptor transcriptional activity at 1 uM incubated for 24 hrs by dual luciferase reporter gene assay relative to rosiglitazone
- Type: cell-based
In plain terms, low Emax, meaning strictly below 5%, gives true, and everything else gives false.

[
  {
    "Compound Smiles": "O=C(O)CCc1ccc2[nH]c(-c3c(Cl)cccc3Cl)cc2c1",
    "Assigned Category": "false"
  }
]

Lab log: compare recorded Emax with 5%; is it strictly lower for Cc1cc(F)ccc1-c1cc2cc(CCC(=O)O)ccc2n1C ?
false

Cc1ccc(C)c(-c2cc3cc(CCC(=O)O)ccc3n2C)c1 , same question.
true

Another compound to check: O=C(O)CCc1ccc2[nH]c(-c3cccc(Cl)c3Cl)cc2c1
false

====

- Assay Summary: Clast in CD-1 mouse at 30 mg/kg, po measured up to 8 hrs by LC-MS/MS analysis
- Type: ADME, organism-based
- Condition Details: in vivo, read-out: Clast
Below, each of the compounds is paired with its reported concentration at 8 h value.
The reply should be a number in µg/mL, with the unit left off.

[
  {
    "Compound Smiles": "Cc1cc(F)ccc1-c1cc2cc(CCC(=O)O)ccc2[nH]1",
    "concentration at 8 h, µg/mL": 0.189
  }
]

Read the next record carefully.
So what's the measured concentration at 8 h for this one? Cc1ccc(C)c(-c2cc3cc(CCC(=O)O)ccc3[nH]2)c1
0.062

Entry source: ChEMBL document CHEMBL4808171
